Data origin: patent US11267811B2

- tested-system: His-tagged recombinant human Gal-3 (hGal-3) (Homo sapiens (Human), UniProt P17931)
- Sequence (P17931 whole entry): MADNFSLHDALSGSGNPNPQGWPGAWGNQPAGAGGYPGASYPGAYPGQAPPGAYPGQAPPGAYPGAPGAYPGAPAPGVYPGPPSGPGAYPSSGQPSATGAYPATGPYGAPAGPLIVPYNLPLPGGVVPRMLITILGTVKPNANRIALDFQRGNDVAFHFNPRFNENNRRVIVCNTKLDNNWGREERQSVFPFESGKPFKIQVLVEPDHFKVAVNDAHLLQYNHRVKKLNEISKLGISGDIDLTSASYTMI
- experiment: Gal-3 HTRF assay (His-tagged hGal-3 binding to B-ASF)
- run-conditions: HTRF, hGal-3 15 nM, B-ASF 15 nM; read-out: hGal-3 IC50
Label y when IC50 is strictly below 200 nM; at or above that, label n.

- Cc1nnc([C@@H]2O[C@H](CO)[C@H](O)[C@H](n3cc(-c4cc(F)c(F)c(F)c4)nn3)[C@H]2O)n1-c1cccc(Cl)c1: y
- OC[C@H]1O[C@@H](c2nncn2-c2ccc(Oc3ccccc3)cc2)[C@H](O)[C@@H](n2cc(-c3cc(F)c(F)c(F)c3)nn2)[C@H]1O: n
- OC[C@H]1O[C@@H](c2nncn2-c2cnc3ccccc3c2)[C@H](O)[C@@H](n2cc(-c3cc(F)c(F)c(F)c3)nn2)[C@H]1O: y
- CSc1cc(Cl)cc(-n2cnnc2[C@@H]2O[C@H](CO)[C@H](O)[C@H](n3cc(-c4cc(F)c(F)c(F)c4)nn3)[C@H]2O)c1: y
- Cc1cccc(-n2ncnc2[C@@H]2O[C@H](CO)[C@H](O)[C@H](n3cc(-c4cc(F)c(F)c(F)c4)nn3)[C@H]2O)c1: n
- OC[C@H]1O[C@@H](c2ncnn2-c2ccc(Cl)c(Cl)c2)C[C@@H](n2cc(-c3cc(F)c(F)c(F)c3)nn2)[C@H]1O: n
- Cn1ncnc1[C@@H]1O[C@H](CO)[C@H](O)[C@H](n2cc(-c3cc(F)c(F)c(F)c3)nn2)[C@H]1O: n
- OC[C@H]1O[C@@H](c2ncnn2-c2ccc3ncsc3c2)C[C@@H](n2cc(-c3cc(F)c(F)c(F)c3)nn2)[C@H]1O: y
- OC[C@H]1O[C@@H](c2nncn2-c2cc(Cl)ccc2Cl)[C@H](O)[C@@H](n2cc(-c3cc(F)c(Cl)c(F)c3)nn2)[C@H]1O: y
- CN(C)c1ccc(-n2cnnc2[C@@H]2O[C@H](CO)[C@H](O)[C@H](n3cc(-c4cc(F)c(F)c(F)c4)nn3)[C@H]2O)cc1: n
- NC(=O)c1cccc(-n2ncnc2[C@H]2C[C@@H](n3cc(-c4cc(F)c(F)c(F)c4)nn3)[C@@H](O)[C@@H](CO)O2)c1: n
- OC[C@H]1O[C@@H](c2ccnn2-c2ccc(Cl)c(Cl)c2)[C@H](O)[C@@H](n2cc(-c3cc(F)c(F)c(F)c3)nn2)[C@H]1O: n
- CNC(=O)c1nnc([C@@H]2O[C@H](CO)[C@H](O)[C@H](n3cc(-c4cccc(F)c4)nn3)[C@H]2O)o1: n

* * *

// reported log10(IC50) per item
- tested-system: His-tagged recombinant human Gal-3 (hGal-3) (Homo sapiens (Human))
- experiment: Gal-3 HTRF assay (His-tagged hGal-3 binding to B-ASF)
- run-conditions: HTRF, hGal-3 15 nM, B-ASF 15 nM; read-out: hGal-3 IC50
readout-kind: log10(IC50) (log10 of the value in nM)

• OC[C@H]1O[C@@H](c2ncnn2[C@@H]2CCCC[C@H]2O)[C@H](O)[C@@H](n2cc(-c3cc(F)c(F)c(F)c3)nn2)[C@H]1O = 3.31
• OC[C@H]1O[C@@H](c2ncnn2Cc2cccc(Cl)c2)[C@H](O)[C@@H](n2cc(-c3cc(F)c(F)c(F)c3)nn2)[C@H]1O = 3.05
• OC[C@H]1O[C@@H](c2nncn2-c2ccc(OC(F)(F)F)cc2)[C@H](O)[C@@H](n2cc(-c3cc(F)c(F)c(F)c3)nn2)[C@H]1O = 3.05
• Cc1nc2ccc(-n3ncnc3[C@@H]3O[C@H](CO)[C@H](O)[C@H](n4cc(-c5cc(F)c(Cl)c(Cl)c5)nn4)[C@H]3O)cc2s1 = 1.70
• Cc1nc2ccc(-n3ncnc3[C@@H]3O[C@H](CO)[C@H](O)[C@H](n4cc(C(=O)NCc5cccc(F)c5)nn4)[C@H]3O)cc2s1 = 2.93
• CO[C@@H]1[C@@H](n2cc(-c3ccc(Cl)c(F)c3)nn2)[C@@H](O)[C@@H](CO)O[C@H]1c1nc(C)nn1-c1cc(Cl)ccc1Cl = 1.70

* * *

- tested-system: His-tagged recombinant human Gal-3 (hGal-3) (Homo sapiens (Human), UniProt P17931)
- experiment: Gal-3 HTRF assay (His-tagged hGal-3 binding to B-ASF)
- run-conditions: HTRF, hGal-3 15 nM, B-ASF 15 nM; read-out: hGal-3 IC50
pIC50: −log10 of the molar value.
// reported pIC50 per item
readout-kind: pIC50

- Cc1ncc(Cl)cc1-n1cnnc1[C@@H]1O[C@H](CO)[C@H](O)[C@H](n2cc(-c3cc(F)c(F)c(F)c3)nn2)[C@H]1O: 7.40
- OC[C@H]1O[C@@H](c2nncn2-c2ccc(Br)cc2)[C@H](O)[C@@H](n2cc(-c3cc(F)c(F)c(F)c3)nn2)[C@H]1O: 6.44
- Cc1nc2cc(Cl)c(-n3ncnc3[C@H]3C[C@@H](n4cc(-c5cc(F)c(F)c(F)c5)nn4)[C@@H](O)[C@@H](CO)O3)cc2s1: 6.92
- OC[C@H]1O[C@@H](c2nncn2-c2ccc3c(c2)OCO3)[C@H](O)[C@@H](n2cc(-c3cc(F)c(F)c(F)c3)nn2)[C@H]1O: 6.92
- OC[C@H]1O[C@@H](n2nncc2-c2cccc(Cl)c2)[C@H](F)[C@@H](n2cc(-c3cc(F)c(F)c(F)c3)nn2)[C@H]1O: 5.98
- Cc1nc([C@@H]2O[C@H](CO)[C@H](O)[C@H](n3cc(-c4cc(F)c(F)c(F)c4)nn3)[C@H]2O)n(-c2ccc3nc(C)sc3c2)n1: 7.30
- OC[C@H]1O[C@@H](c2ncnn2-c2ccccc2Cl)[C@H](O)[C@@H](n2cc(-c3cc(F)c(F)c(F)c3)nn2)[C@H]1O: 6.32
- N#Cc1cccc(-n2cnnc2[C@@H]2O[C@H](CO)[C@H](O)[C@H](n3cc(-c4cc(F)c(F)c(F)c4)nn3)[C@H]2O)c1: 6.85
- OC[C@H]1O[C@@H](c2ncnn2-c2cc(Cl)ccc2Cl)[C@H](O)[C@@H](n2cc(-c3cc(F)c(F)c(F)c3)nn2)[C@H]1O: 7.10
- OC[C@H]1O[C@@H](c2ncnn2C2CCNCC2)[C@H](O)[C@@H](n2cc(-c3cc(F)c(F)c(F)c3)nn2)[C@H]1O: 5.42
- Cc1nc([C@@H]2O[C@H](CO)[C@H](O)[C@H](n3cc(-c4cc(F)c(F)c(F)c4)nn3)[C@H]2O)n(-c2cc(Cl)c(Cl)cc2C)n1: 7.22
- OC[C@H]1O[C@@H](c2nncn2-c2cc(F)cc(Cl)c2)[C@H](O)[C@@H](n2cc(-c3cc(F)c(F)c(F)c3)nn2)[C@H]1O: 6.89
- CNC(=O)c1cn([C@H]2[C@@H](O)[C@@H](CO)O[C@@H](c3ncnn3-c3ccc4nc(C)sc4c3)[C@@H]2O)nn1: 5.94

* * *

- tested-system: His-tagged recombinant human Gal-3 (hGal-3) (Homo sapiens (Human), UniProt P17931)
- experiment: Gal-3 HTRF assay (His-tagged hGal-3 binding to B-ASF);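 also: compounds preincubated 30 min with hGal-3, then 1 h with B-ASF, detection via terbium anti-His antibody and streptavidin d2. Control with B-ASF counts as full signal, omitting B-ASF as background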
- run-conditions: HTRF, hGal-3 15 nM, B-ASF 15 nM; read-out: hGal-3 IC50
Label y when IC50 is strictly below 200 nM; at or above that, label n.

* Cc1ccc(-n2ncnc2[C@@H]2O[C@H](CO)[C@H](O)[C@H](n3cc(-c4cc(F)c(F)c(F)c4)nn3)[C@H]2O)cc1 [Example 39] | n
* Cc1cccc(-n2cnnc2[C@@H]2O[C@H](CO)[C@H](O)[C@H](n3cc(-c4cc(F)c(F)c(F)c4)nn3)[C@H]2O)c1 [Example 155] | y
* CS(=O)(=O)c1nnc([C@@H]2O[C@H](CO)[C@H](O)[C@H](n3cc(-c4cc(F)c(F)c(F)c4)nn3)[C@H]2O)n1-c1ccc(Cl)c(Cl)c1 [Example 279] | y
* Cc1nc2ccc(-n3nc(C(F)(F)F)nc3[C@@H]3O[C@H](CO)[C@H](O)[C@H](n4cc(-c5cc(F)c(F)c(F)c5)nn4)[C@H]3O)cc2s1 [Example A4] | y
* CCc1nc([C@@H]2O[C@H](CO)[C@H](O)[C@H](n3cc(-c4cc(F)c(F)c(F)c4)nn3)[C@H]2O)n(-c2ccc3nc(C)sc3c2)n1 [Example 267] | y
* OC[C@H]1O[C@@H](c2nncn2-c2cccc(-c3nnn[nH]3)c2)[C@H](O)[C@@H](n2cc(-c3cc(F)c(F)c(F)c3)nn2)[C@H]1O [Example 112] | n
